Cited source for all entries: PubChem BioAssay

experiment: viability loss with induced miR-34 in A549 – imaging, A549 dox-inducible miR-34, nuclei and caspase counts, primary screen (AID 1347080); settings: A549 miR-34 inducible, Hoechst nuclei count, 48 h; measured here: total cells without miR-34 induction; also: test concentration not given here
# cell count values compiled below
The response must contain the number and no unit.

Illustrative cases are given below, each with its answer.
compound="CCCCC/C=C\\CC1OC1C/C=C\\C/C=C\\CCCC(=O)O (stereo not given)" observation_type="cell count" measured_number=5500
compound=C1=CCOCc2cc(ccc2OCCN2CCCC2)Nc2nccc(n2)-c2cccc(c2)COC1 observation_type="cell count" measured_number=915
compound="COc1ccc2c3c1OC1CC(O)C=C[C@@]31CCN(C)C2 (stereo not given in full)" observation_type="cell count" measured_number=9890
compound=C=C1CC[C@H](O)C/C1=C/C=C1\CCC[C@]2(C)[C@@H]([C@H](C)CC[C@@H](O)C(C)(C)O)CC[C@@H]12 observation_type="cell count" measured_number=5500

Consider the record given below.
Request: For CN1[C@@H]2CC[C@@H]1CC(OC(=O)C(O)c1ccccc1)C2 (stereo not given in full) , what is its reported cell count?
Response: 9020
